Notes on GI50 obtained with HCT-15.

Known results for compounds:
COC(=O)c1c(C#N)c(N)nc2c1CCC2    > 100 µM
CC1(C)CC2=C(SC3C=CC=CC3N2)C(=O)C1C(=O)C(N)=O (configuration not stated)    > 100 µM
c1ccc(P2c3ccccc3Nc3ccccc32)cc1    > 100 µM
C=CCC(OCCOCC)c1cc(OCCOCC)ccc1OC (configuration not stated)    > 100 µM
COC1=C(C)C(=O)C2=C(C1=O)[C@@H]1[C@@H]3Cc4c(OC(=O)CO)c(C)c(OC)c(O)c4[C@H](CNC(=O)C(C)=O)N3[C@@H](C#N)[C@H](C2)N1C    < 0.01 µM

Here are 7 compounds. What values of GI50 were reported for them?
1. O=c1c2nc(-c3ccccc3)oc2n(-c2ccccc2)c(=O)n1-c1ccccc1
2. O=c1c2ccccc2oc2nccnc12
3. COc1ccccc1NCc1nnc(CCCCCCCCc2nnc(CNc3ccccc3OC)o2)o1
4. O=C1CCC2(c3ccc(F)cc3)Nc3cc(Cl)ccc3N12 (configuration not stated)
5. CC1=Nc2nc(Cl)cn2C(=O)C1(Cl)Cl
6. CC(=O)NCc1c(C(N)=O)ncn1Cc1ccccc1
7. O=C1CC(C(O)(C(F)(F)F)C(F)(F)Cl)CCC1C(O)(C(F)(F)F)C(F)(F)Cl (configuration not stated)

1: > 46.5 µM; 2: > 100 µM; 3: > 100 µM; 4: > 100 µM; 5: > 10 µM; 6: > 100 µM; 7: > 10 µM

* * *

# Test system: A549
# TEST DETAILS: NCI tumour cell line growth inhibition, 48 h
Active and inactive are the calls of the source. Rule as the data show it: active = GI50 up to about 1.1 µM and inactive = higher.
Give your call using only these classes: active, inactive

Record excerpt, results attached:
N=c1oc2ccccc2cc1C(=O)NC12CC3CC(CC(C3)C1)C2    inactive
N#Cc1c(N2CCC(O)C2)c2ccccc2n2c1nc1ccccc12 (stereo not drawn)    inactive

Fill in: this test's call for CC1=Nc2nc(Cl)cn2C(=O)C1(Cl)Cl is ___
inactive

Fill in: this test's call for C=C1CCC(O)C/C1=C/C=C1\CCCC2(C)C1CCC2C(C)CCCC(C)C (stereo not drawn) is ___
inactive

Fill in: this test's call for Cc1ccc(F)c2c(=O)cc(-c3ccccc3)[nH]c12 is ___
inactive

Fill in: this test's call for c1ccc(P2c3ccccc3Nc3ccccc32)cc1 is ___
inactive

Fill in: this test's call for Nc1ccn(C2OC(CO)C(O)C2O)c(=O)c1 (stereo not drawn) is ___
inactive

Fill in: this test's call for O=C1C(=Cc2ccc(O)cc2)N=C(c2ccccc2)N1n1c(-c2ccccc2)nc2ccccc2c1=O is ___
inactive

Fill in: this test's call for COc1ccc(S(=O)(=O)O)cc1-n1nc(C(=O)Nc2ccccc2)n[n+]1-c1cc(S(=O)(=O)[O-])ccc1OC is ___
inactive

Fill in: this test's call for CC1=NC2(CCCCC2)N(Cl)C(=O)C1SC#N (stereo not drawn) is ___
active

Fill in: this test's call for CC(=O)OC[C@@]1(C)[C@@H]2[C@@H]3[C@@]4(CO[C@]3(C)C(=O)[C@@]3(OC(C)=O)C[C@H](C)[C@H](OC(C)=O)[C@@H]3[C@H]4OC(C)=O)[C@H](OC(=O)c3ccccc3)C[C@@H]21 is ___
inactive

Fill in: this test's call for O=C(CC1(O)C(=O)Nc2c(Cl)ccc(Cl)c21)c1ccc(Cl)cc1Cl (stereo not drawn) is ___
inactive

Fill in: this test's call for CCOC(=O)C1CCCCN1C(=O)Cc1c[nH]c2ccccc12 (stereo not drawn) is ___
inactive
